Values were extracted from PubChem BioAssay (NCI).

Tested on: T-47D breast
Experiment: NCI tumour cell line growth inhibition, 48 h
The entries below are paired with their reported TGI.

// below: answered molecules
> print(dat)
                                   molecule  assayed.system    result
1  COc1ccc(C(=O)Cn2c(C(=O)c3ccc(OC)cc3)nc3ccccc32)cc1    T-47D breast  > 100 µM
2  Cc1ccccc1NC(=O)NC(Oc1ccccc1)(C(F)(F)F)C(F)(F)F    T-47D breast  > 100 µM
3                 CN1CCCN2CCN(C)CCN(CC1)CC2    T-47D breast  > 100 µM

Entry `CCN(CC)c1ccc(/C=C(\C#N)c2nc(N)nc(N3N=C(C)CC3(C)C)n2)cc1` — recorded TGI = 39.6 µM

Entry Cc1ccc(NC(c2ccccc2)c2ccc3cccnc3c2O)cc1 (stereo not given) — recorded TGI = 36 µM

###

System: HL-60(TB) leukemia
Test: NCI tumour cell line growth inhibition, 48 h
The entries below are paired with their reported TGI.

// below: answered molecules
> print(dat)
                                   molecule    result
1  Cc1cc2c(cc1C)NC(=O)C(NC(=O)/C=C/c1ccccc1)C=N2 (stereo unspecified)   43.5 µM
2  Cc1c(N2C(=O)/C(=C/C=C/c3ccccc3)N=C2c2ccccc2)c(=O)n(-c2ccccc2)n1C   35.7 µM
3  CN1C2CCC1CC(OC(c1ccccc1)c1ccccc1)C2 (stereo unspecified)   36.2 µM
4      Cc1cc2c(c3c1c1ccccc1n3C)C(=O)C=CC2=O     16 µM
5  Cc1ccc(-c2c(C#N)c(-c3ccc(Cl)cc3)c(C#N)c(=O)n2NS(=O)(=O)c2ccccc2)cc1  > 100 µM
6        CCOC(=O)CN1CCNCCN(CC(=O)OCC)CCNCC1  > 100 µM

Entry Cc1ccc(S(=O)ON2CCC(C(=O)O)(c3ccccc3)CC2)cc1 (stereo unspecified) — recorded TGI = > 100 µM

Entry `CNC(=S)/C(=N\Nc1nc[nH]c1C(N)=O)C(N)=S` — recorded TGI = 7.83 µM

Entry CCN1CC2=C(N=c3s/c(=C\c4ccc(Cl)cc4)c(=O)n3C2c2ccc(Cl)cc2)/C(=C/c2ccc(Cl)cc2)C1 (stereo unspecified) — recorded TGI = > 100 µM

Entry `O=c1[nH]c2ccc(C(F)(F)F)cc2nc1-c1ccccc1` — recorded TGI = > 100 µM

Entry `COC(=O)c1c[nH]cc1CCc1c[nH]cc1C(=O)OC` — recorded TGI = > 100 µM

Entry `CCC1=C(C)/C(=C/c2[nH]c(C)c(C(=O)CCCCC(=O)OC)c2C)N=C1c1ccc[nH]1` — recorded TGI = 9.28 µM

Entry `Cn1ccnc1C(=O)/C=C/c1ccc(CC(=O)Nc2ccc(Cl)cc2)cc1` — recorded TGI = > 25 µM

Entry COc1ccc(OC)c(C2CCc3nc4nc(N)nc(N)c4cc3C2)c1 (stereo unspecified) — recorded TGI = 7.86 µM

Entry CC(C)=CCC[C@]1(C)CC[C@]2(C)C3CCC(=C(C)C)[C@@H](CCCO)[C@]3(C)CC[C@@]2(C)C1 (stereo partly specified) — recorded TGI = 84.3 µM

Entry `CC(C)(C)[OH+][O-].[O-]c1ccc(Cl)cc1C=Nc1ccc(Cl)cc1[O-].[O]=[V]` — recorded TGI = > 100 µM

Entry CC(C)(C)OC(=O)[N+](=N)C(=O)C1CCC(=O)N1C(=O)OCc1ccccc1 (stereo unspecified) — recorded TGI = > 100 µM

Entry CCOC(=O)CC(=O)NC1CC2CCC1(C)C2(C)C (stereo unspecified) — recorded TGI = > 100 µM

Entry CC(Cn1c2c3ccccc3ccc2c2oc(=O)c3ccccc3c21)N(C)C (stereo unspecified) — recorded TGI = > 100 µM

Entry `COc1cc(Nc2cnc3cc(C(F)(F)F)ccc3n2)cc(OC)c1OC` — recorded TGI = > 100 µM

Entry `CCN(CC)CCn1c(C(C)(C)C)nc2ccccc21` — recorded TGI = > 100 µM
